Cited source for all entries: the supplement of paper PMC9262897

# Tested on: E. coli TESEC Mtb Alr
# ASSAY_REMARKS: growth (OD600 after 10 h); higher = more growth (less inhibition)
# MEASUREMENT_CONDITIONS: arabinose 10000000 nM; compound 0.1 mM; raw OD600 reference: median of DMSO wells […], cell-free background 0.052
Where a name gives a salt, the structure may show the parent alone.
The entries below come with measured growth values attached.
OBSERVABLE: growth

>>> result_number("CCCCC(O)c1ccccc1 (configuration not stated)")
0.337
>>> result_number("Nc1ccc(S(=O)(=O)Nc2nccs2)cc1")
0.343
>>> result_number("CC(=O)OCC(=O)NCCCOc1cccc(CN2CCCCC2)c1 [Roxatidine Acetate HCl]")
0.357
>>> result_number("CC(=O)NCCCS(=O)(=O)O [Acamprosate calcium]")
0.35
>>> result_number("COc1ccc(C2CNC(=O)C2)cc1OC1CCCC1 (configuration not stated)")
0.311
>>> result_number("CN1CCC[C@@H]1CCO[C@](C)(c1ccccc1)c1ccc(Cl)cc1 [Clemastine fumarate]")
0.0923
>>> result_number("CC(=O)Oc1ccc(C(c2ccc(OC(C)=O)cc2)c2ccccn2)cc1")
0.39
>>> result_number("COc1c2occc2c(OC)c2c(=O)cc(C)oc12")
0.306
>>> result_number("Cc1nc2n(c(=O)c1CCN1CCC(c3noc4cc(F)ccc34)CC1)CCCC2")
0.305
>>> result_number("CC(=O)[C@H]1CC[C@H]2[C@@H]3CCC4=CC(=O)CC[C@]4(C)[C@H]3CC[C@]12C")
0.0648
>>> result_number("CCCC(C(=O)OCCN(CC)CC)(c1ccccc1)c1ccccc1 [Proadifen hydrochloride]")
0.0643
>>> result_number("O=C(O)CCC(=O)c1ccc(-c2ccccc2)cc1")
0.235
>>> result_number("CC[N+](C)(CC)CCOC(=O)C1c2ccccc2Oc2ccccc21 [Methantheline bromide]")
0.336
>>> result_number("O=c1cc(-c2ccc(O)c(O)c2)oc2cc(O)cc(O)c12")
0.0574
>>> result_number("CNCC(O)c1ccc(OC(=O)C(C)(C)C)c(OC(=O)C(C)(C)C)c1 (configuration not stated) [Dipivefrin hydrochloride]")
0.19
>>> result_number("NCCc1c[nH]cn1 [Histamine dihydrochloride]")
0.312
>>> result_number("CC1(C)S[C@@H]2[C@H](NC(=O)Cc3ccccc3)C(=O)N2[C@H]1C(=O)O [Benzylpenicillin sodium]")
0.363
>>> result_number("OCCN1CCN(CCCN2c3ccccc3Sc3ccc(C(F)(F)F)cc32)CC1 [Fluphenazine dihydrochloride]")
0.0529
>>> result_number("CCOc1ccc2c(c1)C(C)=CC(C)(C)N2")
0.167
>>> result_number("Cc1[nH]c(=O)c(C#N)cc1-c1ccncc1")
0.305
>>> result_number("Oc1c(Cl)cc(Cl)c2cccnc12")
0.0726
>>> result_number("C#C[C@]1(OC(C)=O)CC[C@H]2[C@@H]3CCC4=C[C@@H](OC(C)=O)CC[C@@H]4[C@H]3CC[C@@]21C [Ethynodiol diacetate]")
0.118
